- Measurement Target: mouse TMEM16A mutant I640A (Mus musculus, UniProt Q8BHY3, I640A)
- Construct: expressed in transfected cells; host or cells: HEK293T
- Sequence (Q8BHY3 1-960 I640A): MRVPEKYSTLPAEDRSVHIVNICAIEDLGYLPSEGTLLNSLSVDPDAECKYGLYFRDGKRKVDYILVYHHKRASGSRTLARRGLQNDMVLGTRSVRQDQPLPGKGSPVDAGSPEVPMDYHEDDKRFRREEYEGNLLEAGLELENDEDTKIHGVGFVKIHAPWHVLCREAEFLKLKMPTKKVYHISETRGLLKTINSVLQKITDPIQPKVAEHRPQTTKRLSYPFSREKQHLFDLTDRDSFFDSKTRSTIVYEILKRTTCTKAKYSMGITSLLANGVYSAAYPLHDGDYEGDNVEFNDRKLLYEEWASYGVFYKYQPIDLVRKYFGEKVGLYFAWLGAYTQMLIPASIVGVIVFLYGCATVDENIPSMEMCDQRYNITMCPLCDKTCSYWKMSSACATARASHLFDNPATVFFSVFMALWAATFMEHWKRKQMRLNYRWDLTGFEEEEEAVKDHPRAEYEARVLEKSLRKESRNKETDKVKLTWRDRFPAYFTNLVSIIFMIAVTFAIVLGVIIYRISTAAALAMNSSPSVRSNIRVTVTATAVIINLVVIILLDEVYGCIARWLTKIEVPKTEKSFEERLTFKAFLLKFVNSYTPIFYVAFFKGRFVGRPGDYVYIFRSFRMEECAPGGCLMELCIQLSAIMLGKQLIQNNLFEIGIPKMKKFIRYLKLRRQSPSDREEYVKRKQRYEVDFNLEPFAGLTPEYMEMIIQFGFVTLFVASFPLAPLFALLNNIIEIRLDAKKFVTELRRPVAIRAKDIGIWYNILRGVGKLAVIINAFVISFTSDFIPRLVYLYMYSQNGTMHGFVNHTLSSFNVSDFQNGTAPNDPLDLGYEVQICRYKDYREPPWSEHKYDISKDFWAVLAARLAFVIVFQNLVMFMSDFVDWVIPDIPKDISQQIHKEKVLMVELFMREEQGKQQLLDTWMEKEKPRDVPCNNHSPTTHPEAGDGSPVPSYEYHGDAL
- Assay Details: Inside-out patch recording of 1PBC block, mutant I640A
- Type: cell-based
- Condition Description: I640A; V 0 mV
Measurement Type: pIC50
One number for each entry, as −log10 of the molar value.

Ask: Output pIC50 of N#Cc1c(C(F)(F)F)cc(O)n2c1nc1ccccc12
Result: 4.50
